RUN_DESCRIPTION: Replicon Assay (luciferase, ET cell line)
Assay type: cell-based, HCV
CONDITION_INFO: Hepatitis C virus; tested at 6.25 μM; inhibition of replication (luciferase activity) relative to no compound control
READOUT_LABEL: inhibition at 6.25 µM (%)
API: value field is a number in %; no unit string.

Record request: inhibition at 6.25 µM value, item Cc1nc(C)c(-c2ccc3cc(-c4c(C5=CCCCC5)c5sc(C(=O)O)cc5n4CC(=O)N4CCOCC4)ccc3n2)s1 [compound 187] 63

Look at this molecule and give its reported inhibition at 6.25 µM. O=C(O)c1cc2c(s1)c(C1CCCCC1)c(-c1ccc3nc(-c4ccccc4F)ccc3c1)n2CC(=O)N1CCOCC1 [compound 188] 99

Request the reported inhibition at 6.25 µM associated with Cc1nc(C)c(-c2ccc3cc(-c4c(C5CCCCC5)c5sc(C(=O)O)cc5n4CC(=O)N4CCCCC4)ccc3n2)s1 [compound 191] 97

inhibition at 6.25 µM for O=C(O)c1cc2c(s1)c(C1=CCCCC1)c(-c1ccc3nc(-c4ccccc4F)ccc3c1)n2CC(=O)N1CCOCC1 [compound 186] ? 75

Value lookup for inhibition at 6.25 µM; key = Cc1nc(C)c(-c2ccc3cc(-c4c(C5CCCCC5)c5sc(C(=O)O)cc5n4CC(=O)N4CCSCC4)ccc3n2)s1 [compound 190] 98

GET /values?readout=inhibition at 6.25 µM&item= Cc1nc(C)c(-c2ccc3cc(-c4c(C5CCCCC5)c5sc(C(=O)O)cc5n4CC(=O)N4CCOCC4)ccc3n2)s1 [compound 189] 100
